Values compiled from ChEMBL document CHEMBL2046274.

- Test system: Staphylococcus aureus
- test_protocol: Antibacterial activity against Staphylococcus aureus SAK2378 overexpressing norA by microdilution method
- Assay type: functional
Collected MIC values appear next to each entry.
property: MIC

>>> print(df.to_string())
                                smiles_data  property  result_value
0  O=C(O)c1cn(C2CC2)c2cc(N3CCNCC3)c(F)cc2c1=O       MIC     2.5 µg/mL
1  Fc1ccc([C@@H]2CCNC[C@H]2COc2ccc3c(c2)OCO3)cc1       MIC     100 µg/mL
2  O=[N+]([O-])c1ccc(-n2nc(-c3ccc(Cl)cc3)c3c2-c2ccccc2S(=O)(=O)N3)cc1       MIC      25 µg/mL
3  COC(=O)[C@H]1[C@H]2C[C@@H]3c4[nH]c5cc(OC)ccc5c4CCN3C[C@H]2C[C@@H](OC(=O)c2cc(OC)c(OC)c(OC)c2)[C@@H]1OC       MIC   > 100 µg/mL
